Value source: the Kinase Knowledgebase extract (Sharma et al. 2016)

- test-system: EGFR (UniProt P00533)
- Sequence (P00533 whole entry, looked up): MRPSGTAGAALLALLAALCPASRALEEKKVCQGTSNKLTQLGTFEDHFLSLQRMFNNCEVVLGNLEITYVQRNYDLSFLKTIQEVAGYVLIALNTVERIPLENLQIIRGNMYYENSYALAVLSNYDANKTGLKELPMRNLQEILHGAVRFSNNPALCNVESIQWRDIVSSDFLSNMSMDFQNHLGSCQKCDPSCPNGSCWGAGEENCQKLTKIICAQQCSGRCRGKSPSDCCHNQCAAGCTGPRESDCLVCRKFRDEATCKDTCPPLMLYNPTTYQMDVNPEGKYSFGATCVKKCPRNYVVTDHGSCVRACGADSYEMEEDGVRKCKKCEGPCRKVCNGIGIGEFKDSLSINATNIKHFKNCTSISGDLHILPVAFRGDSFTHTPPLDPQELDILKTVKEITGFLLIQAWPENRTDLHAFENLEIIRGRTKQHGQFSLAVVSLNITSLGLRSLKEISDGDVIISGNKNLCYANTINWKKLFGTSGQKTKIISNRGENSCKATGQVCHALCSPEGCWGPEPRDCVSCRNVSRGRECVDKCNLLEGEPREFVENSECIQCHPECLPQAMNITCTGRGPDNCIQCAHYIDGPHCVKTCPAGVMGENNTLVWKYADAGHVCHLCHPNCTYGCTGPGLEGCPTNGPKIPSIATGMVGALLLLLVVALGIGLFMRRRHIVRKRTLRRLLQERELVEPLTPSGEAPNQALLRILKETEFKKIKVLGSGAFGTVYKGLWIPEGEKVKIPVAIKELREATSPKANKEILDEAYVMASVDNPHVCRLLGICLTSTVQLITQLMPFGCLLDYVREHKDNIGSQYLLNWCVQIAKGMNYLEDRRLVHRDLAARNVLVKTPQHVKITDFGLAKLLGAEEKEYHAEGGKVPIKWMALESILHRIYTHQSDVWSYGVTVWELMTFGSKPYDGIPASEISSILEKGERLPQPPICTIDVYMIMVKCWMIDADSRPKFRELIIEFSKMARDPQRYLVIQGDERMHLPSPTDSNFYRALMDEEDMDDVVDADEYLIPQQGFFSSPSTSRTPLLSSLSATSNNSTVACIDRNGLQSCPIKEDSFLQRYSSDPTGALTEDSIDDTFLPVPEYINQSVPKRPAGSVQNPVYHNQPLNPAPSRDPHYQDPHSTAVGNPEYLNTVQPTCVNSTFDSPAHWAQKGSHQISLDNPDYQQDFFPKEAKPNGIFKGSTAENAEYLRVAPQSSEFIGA
pIC50: −log10 of the molar value.
Lab note: compare pIC50 against 4. Equal or greater, write fulfilled. Smaller, write not fulfilled.

smiles-text | label-value
N#CC(C#N)=Cc1cc(O)cc(O)c1 | not fulfilled
N#CC(C#N)=Cc1cc(O)c(O)c(O)c1 | fulfilled
COc1cc(C=C(C#N)C#N)cc(O)c1O | fulfilled
N#CC(C#N)=C(N)/C(C#N)=C/c1ccc(O)c(O)c1 | fulfilled
N#C/C(=C\c1ccc(O)c(O)c1)C(=O)O | not fulfilled
N#CC(C#N)=C(O)c1cc(O)c(O)c(O)c1 | fulfilled
N#C/C(=C\c1ccc(O)c(O)c1)C(N)=O | fulfilled
